Experiment: A CellTox Green Cytotoxicity Assay to monitor cytotoxicity in HepG2 cells - 32 hour (AID 1224883); note: nearly all actives have a fitted effect of over 50% in size
Conditions: CellTox Green fluorescence; series mostly up to 76.8 µM
Results filed as inconclusive are left out. The source made the active and inactive calls. Calls come from the whole dose curve; as a rule, active = well fitted activation curve with a large enough effect in the repeat runs; inconclusive = weak or mixed curves; inactive = flat fitted curve, though single readings scatter.
Response enum: true = active, false = inactive

Recorded results for 8 molecules are shown here.
N#CCCC(Br)(C#N)CBr (stereo not given) :: true
CC(C)N1C(=O)N(c2ccccc2)CSC1=NC(C)(C)C :: false
CCOC(=O)C1(c2ccccc2)CCN(CCC(C#N)(c2ccccc2)c2ccccc2)CC1 :: false
O=C(O)c1cc[c]([Hg][Cl])cc1 :: true
C[As+](C)(C)CC(=O)[O-] :: false
CCCCCCCCCCCCCN1CC(C)OC(C)C1 (stereo not given) :: false
Clc1ccc(CSC(Cn2ccnc2)c2ccc(Cl)cc2Cl)cc1 (stereo not given) :: false
Nc1c(Oc2ccccc2)cc(O)c2c1C(=O)c1ccccc1C2=O :: false

Q: Just curious, what result did S=C=Nc1cccc2ccccc12 get here?
A: false

Q: For BrCBr , which call appears in the assay record?
A: false

Q: Hi team, can someone confirm the assay call for CC(C)CBr ?
A: false

Q: Please state the recorded outcome for this molecule: C[C@H]1O[C@@H](O[C@H]2[C@@H](O)C[C@H](O[C@H]3[C@@H](O)C[C@H](O[C@H]4CC[C@@]5(C)[C@H](CC[C@@H]6[C@@H]5CC[C@]5(C)[C@@H](C7=CC(=O)OC7)CC[C@]65O)C4)O[C@@H]3C)O[C@@H]2C)C[C@H](O)[C@@H]1O
A: false

Q: Field: outcome | Entry: N#CCCSCCC#N
A: false

Q: Per the assay record, what outcome was assigned to C[CH2][Hg][N]1C(=O)C2C(C1=O)C1(Cl)C(Cl)=C(Cl)C2(Cl)C1(Cl)Cl (stereo not given) ?
A: true

Q: State the result this test recorded for CCCCOP(=O)(CCCC)OCCCC .
A: false

* * *

Experiment: qHTS assay to identify small molecule agonists of the farnesoid-X-receptor (FXR) signaling pathway - cell viability counter screen (AID 743218); note: nearly all actives have a fitted effect of over 45% in size
Conditions: FXR-bla HEK293T viability, CellTiter-Glo luminescence, 16 h; series mostly up to 62.6 µM
Inconclusive results are not listed. The source made the active and inactive calls. Calls come from the whole dose curve; as a rule, active = well fitted cell-killing curve with a large enough effect in the repeat runs; inconclusive = weak or mixed curves, or effect the other way; inactive = no such curve, though single readings can be large or run the other way.
API: response.call in true = active, false = inactive

Worked cases, answers included:
ClC(Cl)=C(c1ccc(Cl)cc1)c1ccc(Cl)cc1 :: true
COc1ccc(OC)c(CC(C)N)c1 (centres undefined) :: false

Q: Query: recorded result category for c1ccc2c(c1)[nH]c1cnccc12 in this test
A: false

Q: What call does the record list for COP(=S)(OC)Oc1cc(Cl)c(Br)cc1Cl ?
A: false

Q: I'd appreciate the recorded outcome for CC(=O)[O-].CC(=O)[O-].[Hg+2] from this test.
A: true

Q: Hello, I am checking results. What call was entered for CN(C)C(=S)S ?
A: true

Q: How did this test come out for Cc1cc(N=Nc2ccccc2C)ccc1N ?
A: false

Q: Answer briefly: the call reported for CC(C)(C)c1cc([N+](=O)[O-])cc(C(C)(C)C)c1O in this assay.
A: false

Q: Could you kindly confirm the outcome this assay logged for c1ccc(Nc2ccc3ccccc3c2)cc1 ?
A: false

Q: Which outcome did this test record for the molecule Oc1ccc(C2(c3ccc(O)cc3)CCCCC2)cc1 ?
A: true

Q: Entry CCc1nn(C)c(C(=O)NCc2ccc(C(C)(C)C)cc2)c1Cl : call = ?
A: true

Q: Lab log entry: CC(C)(C)OO — outcome as called in the assay?
A: false

Q: Assay outcome for O=C(NC(=O)c1c(F)cccc1F)Nc1cc(Cl)c(OC(F)(F)C(F)F)c(Cl)c1 : what was it?
A: false

Q: Kindly provide the recorded test outcome for the following molecule: CC(C)OS(C)(=O)=O
A: false
